Readings of T½ for the listed binders
# target-desc: T1, human BCMA (human, UniProt Q02223 1-54)
# T1 construct: also called huBCMA; hBCMA
# T1 sequence: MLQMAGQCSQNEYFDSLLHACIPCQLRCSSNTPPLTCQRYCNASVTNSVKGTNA
# procedure-summary: SPR, immobilised IgG, 37° C
The answer is to be given in min; state only the numeric part.

[
  {
    "binder": "L3.PY/L1.PH/H2.HA (antibody, V domains shown, IgG in the assay) VH: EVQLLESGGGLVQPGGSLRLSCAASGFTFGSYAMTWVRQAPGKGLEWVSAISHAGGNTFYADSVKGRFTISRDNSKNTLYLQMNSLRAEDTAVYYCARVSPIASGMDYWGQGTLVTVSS VL: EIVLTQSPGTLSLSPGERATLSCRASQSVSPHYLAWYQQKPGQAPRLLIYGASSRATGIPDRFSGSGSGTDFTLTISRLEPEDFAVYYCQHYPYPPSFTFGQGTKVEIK",
    "unit-label": "min",
    "T½": 9.99
  },
  {
    "binder": "L3.PY/L1.AH/H3.YA (antibody, V domains shown, IgG in the assay) VH: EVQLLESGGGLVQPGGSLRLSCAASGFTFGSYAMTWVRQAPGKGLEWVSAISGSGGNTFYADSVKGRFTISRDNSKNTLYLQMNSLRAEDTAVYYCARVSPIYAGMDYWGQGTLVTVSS VL: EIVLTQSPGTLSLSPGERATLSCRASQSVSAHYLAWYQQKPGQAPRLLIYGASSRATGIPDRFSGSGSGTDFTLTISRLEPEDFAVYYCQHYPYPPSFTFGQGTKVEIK",
    "unit-label": "min",
    "T½": 7.73
  },
  {
    "binder": "L3.PY/L3.KY/H3.TAQ (antibody, V domains shown, IgG in the assay) VH: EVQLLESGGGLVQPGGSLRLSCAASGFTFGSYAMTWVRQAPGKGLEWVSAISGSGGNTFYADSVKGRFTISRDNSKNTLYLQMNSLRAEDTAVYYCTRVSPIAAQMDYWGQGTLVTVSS VL: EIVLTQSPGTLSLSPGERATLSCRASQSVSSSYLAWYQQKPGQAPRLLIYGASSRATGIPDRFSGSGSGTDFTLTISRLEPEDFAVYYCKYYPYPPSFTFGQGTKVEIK",
    "unit-label": "min",
    "T½": 17.8
  },
  {
    "binder": "L3.PY/L1.PS/H2.YQ (antibody, V domains shown, IgG in the assay) VH: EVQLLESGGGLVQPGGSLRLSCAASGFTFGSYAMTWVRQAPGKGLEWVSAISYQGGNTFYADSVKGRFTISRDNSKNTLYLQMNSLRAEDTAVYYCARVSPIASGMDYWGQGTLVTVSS VL: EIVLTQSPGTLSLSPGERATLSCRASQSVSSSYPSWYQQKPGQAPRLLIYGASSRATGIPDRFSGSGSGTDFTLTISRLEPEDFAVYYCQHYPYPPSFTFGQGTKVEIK",
    "unit-label": "min",
    "T½": 2.69
  },
  {
    "binder": "L3.PY/L3.KF/H3.TAQ (antibody, V domains shown, IgG in the assay) VH: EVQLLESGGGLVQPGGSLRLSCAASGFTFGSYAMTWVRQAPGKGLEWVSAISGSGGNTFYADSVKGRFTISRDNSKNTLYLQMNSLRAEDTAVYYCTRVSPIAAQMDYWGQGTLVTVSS VL: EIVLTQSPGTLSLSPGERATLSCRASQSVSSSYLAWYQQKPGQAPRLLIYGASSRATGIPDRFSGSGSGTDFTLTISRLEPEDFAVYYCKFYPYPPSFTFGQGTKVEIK",
    "unit-label": "min",
    "T½": 7.12
  }
]

Q: Value lookup for T½; key = L3.PY/L1.PH/H3.TAQ (antibody, V domains shown, IgG in the assay) VH: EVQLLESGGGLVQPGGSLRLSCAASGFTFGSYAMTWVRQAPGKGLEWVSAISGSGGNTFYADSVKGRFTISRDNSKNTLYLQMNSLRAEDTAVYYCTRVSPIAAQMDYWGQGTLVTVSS VL: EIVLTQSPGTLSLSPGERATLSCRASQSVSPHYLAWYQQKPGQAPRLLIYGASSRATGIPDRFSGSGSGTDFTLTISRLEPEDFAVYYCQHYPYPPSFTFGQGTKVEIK
Result: 5.43

Q: Value lookup for T½; key = L3.PY/H3.TAQ (antibody, V domains shown, IgG in the assay; also called P6E01 L3PY/H3TAQ) VH: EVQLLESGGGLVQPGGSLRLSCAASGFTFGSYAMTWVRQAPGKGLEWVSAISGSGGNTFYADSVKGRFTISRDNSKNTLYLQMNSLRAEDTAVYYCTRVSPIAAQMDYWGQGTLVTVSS VL: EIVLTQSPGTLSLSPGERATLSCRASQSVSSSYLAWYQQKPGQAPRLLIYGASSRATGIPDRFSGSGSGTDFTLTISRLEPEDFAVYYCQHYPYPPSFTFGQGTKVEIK
Result: 10.1

Q: Value lookup for T½; key = L3.PY/L1.PS/H3.YA (antibody, V domains shown, IgG in the assay) VH: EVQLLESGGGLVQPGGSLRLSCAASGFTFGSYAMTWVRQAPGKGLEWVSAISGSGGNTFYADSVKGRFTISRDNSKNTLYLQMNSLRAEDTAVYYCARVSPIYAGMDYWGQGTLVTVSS VL: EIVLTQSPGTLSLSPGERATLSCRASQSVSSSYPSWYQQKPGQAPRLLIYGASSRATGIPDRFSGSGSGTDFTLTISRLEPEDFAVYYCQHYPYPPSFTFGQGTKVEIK
Result: 1.28

Q: Value lookup for T½; key = L3.PY/L1.PH/P6E01 (antibody, V domains shown, IgG in the assay) VH: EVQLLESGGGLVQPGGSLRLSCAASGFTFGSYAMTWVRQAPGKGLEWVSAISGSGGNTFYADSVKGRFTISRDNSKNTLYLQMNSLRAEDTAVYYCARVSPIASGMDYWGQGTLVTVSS VL: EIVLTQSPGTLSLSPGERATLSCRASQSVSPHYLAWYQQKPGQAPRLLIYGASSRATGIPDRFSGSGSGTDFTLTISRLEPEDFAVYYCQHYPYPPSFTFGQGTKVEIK
Result: 12.7

Q: Value lookup for T½; key = L3.PY/L1.FF/H2.QL (antibody, V domains shown, IgG in the assay) VH: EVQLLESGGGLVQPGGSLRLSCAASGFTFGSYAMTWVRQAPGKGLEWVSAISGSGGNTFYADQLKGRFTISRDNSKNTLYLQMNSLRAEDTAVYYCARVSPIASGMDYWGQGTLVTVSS VL: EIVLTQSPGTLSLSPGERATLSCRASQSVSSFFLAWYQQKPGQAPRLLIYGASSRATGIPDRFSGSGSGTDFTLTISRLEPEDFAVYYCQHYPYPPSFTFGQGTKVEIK
Result: 8.28
